The reported measurements were obtained from patent US20240165113A1.

Assayed system: phosphorylated ABL1(T315I)(229-499) (Homo sapiens, UniProt P00519, T315I)
Construct: The protocol was adapted to generate phosphorylated 10×His-tev-ABL1(T315I)(229-499) for use in the SPR studies; made in house; host or cells: E. coli; autophosphorylated in vitro with ATP/MgCl2
Assay overview: SPR binding to phosphorylated ABL1(T315I)(229-499)
Experimental conditions: HBST buffer, Ni-NTA capture of 10xHis-tag, read-out: Phosphorylated ABL1(T315I)(229-499) in HBST buffer KD
Reported metric: Kd (µM)
Express the result in µM but write the number alone.

Inquiry: Consider the compound Nc1nc(N)c(N=O)c(OCC2CCCCC2)n1 [A-0001] and give its measured Kd.
Reply text: 13
